biological target: full length recombinant Pim-1 (Homo sapiens (Human), UniProt P11309); test: Pim enzyme assay (HTRF, phosphorylation of biotinylated-BAD (S112) peptide), Pim-1; type: biochemical; conditions: Pim-1 enzyme assay; read-out: Pim_1_IC50
Sequence (P11309 whole entry): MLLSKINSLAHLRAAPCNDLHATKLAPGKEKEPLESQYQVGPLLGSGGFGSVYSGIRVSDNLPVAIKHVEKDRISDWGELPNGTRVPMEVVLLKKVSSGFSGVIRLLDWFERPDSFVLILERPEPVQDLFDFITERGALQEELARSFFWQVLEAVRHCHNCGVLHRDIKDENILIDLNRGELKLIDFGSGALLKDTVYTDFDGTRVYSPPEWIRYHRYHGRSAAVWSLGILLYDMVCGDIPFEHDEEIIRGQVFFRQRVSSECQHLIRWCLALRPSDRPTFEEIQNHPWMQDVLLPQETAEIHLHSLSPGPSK
pIC50: −log10 of the molar value.
measured_property: pIC50

Observe how each entry below is paired with its result.
[[record]]
compound = "c1cc2[nH]cc(-c3cncc(C4CC4)n3)c2cc1-c1nnc(N2CCCC2)o1 [Example 37, 2,2,2-trifluoroacetate]"
value_observed = 8.04

[[record]]
compound = "CC1CCCN1c1ccnc(-c2c[nH]c3ccc(-c4nnc(N)o4)cc23)n1 (stereo not shown)"
value_observed = 8.19


[A] Cc1cn(-c2cccc(-c3c[nH]c4ccc(-c5nnc(N)s5)cc34)n2)cn1
[B] Nc1nnc(-c2ccc3[nH]cc(-c4ccnc(N5CCOCC5)n4)c3c2)s1
Rank A against B by their pIC50 values and give the higher one. Mark your answer with the label of the selected entry.
A

###

target: full length recombinant Pim-2 (Homo sapiens (Human)); experiment: Pim enzyme assay (HTRF, phosphorylation of biotinylated-BAD (S112) peptide), Pim-2; format: biochemical; settings: Pim-2 enzyme assay; read-out: Pim2_IC50
measured_property: IC50 (nM)

// known answers, use as guide
[[record]]
compound = "Nc1nnc(-c2ccc3[nH]cc(-c4cncc(NCC5CC5)n4)c3c2)s1 [Example 207]"
measured_property = "IC50"
value_observed = 7.71

[[record]]
compound = "CC(C)Nc1nnc(-c2ccc3[nH]cc(-c4nc(C(=O)O)cc(C5CC5)n4)c3c2)o1 [Example 47]"
measured_property = "IC50"
value_observed = 1.16

[[record]]
compound = "CNc1nnc(-c2ccc3[nH]cc(-c4cnc5ccccc5c4)c3c2)s1 [Example 217]"
measured_property = "IC50"
value_observed = 1630


[a] CCOc1nc(-c2c[nH]c3ccc(-c4nnc(NC(C)C)o4)cc23)ncc1F [Example 259]
[b] Nc1nnc(-c2ccc3[nH]cc(-c4ccc5cn[nH]c5c4)c3c2)s1 [Example 171]
[c] Cc1cn(-c2nc(-c3c[nH]c4ccc(-c5nnc(N)s5)cc34)cs2)cn1 [Example 170]
[d] Fc1cccc(Nc2nnc(-c3ccc4[nH]cc(-c5nccc(C6CC6)n5)c4c3)o2)c1 [Example 269]
[e] Nc1nnc(-c2ccc3[nH]cc(-c4cccc(-n5cccn5)n4)c3c2)o1 [Example 77]
Highest IC50 first, then in falling order down to the smallest. # answer = labels listed in requested order
d, c, b, a, e

###

target: full length recombinant Pim-1 (Homo sapiens (Human)); assay: Pim enzyme assay (HTRF, phosphorylation of biotinylated-BAD (S112) peptide), Pim-1; format: biochemical; conditions: Pim-1 enzyme assay; read-out: Pim_1_IC50
measured_property: IC50 (nM)

[[record]]
smiles_structure = "c1cc(C2CC2)nc(-c2c[nH]c3ccc(-c4nnc(NC5CC5)o4)cc23)n1"
value_observed = 1.99


[1] Nc1nnc(-c2ccc3[nH]cc(-c4cncc(N5CCCCC5)n4)c3c2)s1
[2] Nc1nnc(-c2ccc3[nH]cc(-c4ccccc4F)c3c2)o1
[3] CNc1nnc(-c2ccc3[nH]cc(-c4ccn[nH]4)c3c2)s1
Ordering criterion: IC50; begin with the maximum. Please write the labels in the order that was asked for.
3, 2, 1

###

molecular target: full length recombinant Pim-2 (Homo sapiens (Human)); test: Pim enzyme assay (HTRF, phosphorylation of biotinylated-BAD (S112) peptide), Pim-2; assay type: biochemical; details: Pim-2 enzyme assay; read-out: Pim2_IC50
pIC50: −log10 of the molar value.
measured_property: pIC50

Field: example entries. Status: answers known.
[[record]]
compound = "CCOc1cccc(-c2c[nH]c3ccc(-c4nnc(NC)s4)cc23)n1 [Example 230]"
value_observed = 7.20

[[record]]
compound = "COc1cncc(-c2c[nH]c3ccc(-c4nnc(N)o4)nc23)c1 [Example 10]"
value_observed = 6.24

[[record]]
compound = "CC(C)Nc1nnc(-c2ccc3[nH]cc(-c4cncc(C5CC5)n4)c3c2)o1 [Example 46]"
value_observed = 8.37


[I] CC(C)Oc1ccc(F)c(-c2c[nH]c3ccc(-c4nnc(N)o4)cc23)c1 [Example 83]
[II] Nc1nnc(-c2ccc3[nH]cc(-c4nccc(C(F)(F)F)n4)c3c2)o1 [Example 96]
// task: argmin of pIC50 over [ I , II ] Please indicate the selected item by its label.
I
(I: 6.71, II: 7.50)

###

molecular target: full length recombinant Pim-2 (Homo sapiens (Human), UniProt Q9P1W9); experiment: Pim enzyme assay (HTRF, phosphorylation of biotinylated-BAD (S112) peptide), Pim-2; type: biochemical; settings: Pim-2 enzyme assay; read-out: Pim2_IC50
Sequence (Q9P1W9 whole entry): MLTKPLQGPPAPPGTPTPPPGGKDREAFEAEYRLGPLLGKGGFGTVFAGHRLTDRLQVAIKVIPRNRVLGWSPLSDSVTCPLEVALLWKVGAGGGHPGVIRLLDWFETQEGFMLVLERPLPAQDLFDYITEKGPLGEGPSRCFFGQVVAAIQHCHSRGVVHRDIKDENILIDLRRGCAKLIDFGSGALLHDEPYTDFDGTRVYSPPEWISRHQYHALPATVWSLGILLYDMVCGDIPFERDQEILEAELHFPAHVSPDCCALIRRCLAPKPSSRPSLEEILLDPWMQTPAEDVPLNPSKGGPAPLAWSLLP
pIC50: −log10 of the molar value.
measured_property: pIC50

Sample records with pIC50:
[[record]]
molecule = "Nc1nnc(-c2ccc3[nH]cc(-c4ccnc(N5CCOCC5)n4)c3c2)s1"
measured_property = "pIC50"
value_observed = 7.71

[[record]]
molecule = "Nc1nnc(-c2ccc3[nH]cc(-c4cncc(Cl)n4)c3c2)o1"
measured_property = "pIC50"
value_observed = 6.84

[[record]]
molecule = "Nc1nnc(-c2ccc3[nH]cc(-c4cncc(-c5cccc(F)c5)n4)c3c2)o1"
measured_property = "pIC50"
value_observed = 7.97

[[record]]
molecule = "COc1cc(-c2c[nH]c3ccc(-c4nnc(N)s4)cc23)nc(OC(C)C)n1"
measured_property = "pIC50"
value_observed = 7.52

[[record]]
molecule = "COc1ccc(CNc2nnc(-c3ccc4[nH]cc(-c5cncc(C6CC6)n5)c4c3)o2)cc1 [Example 36, 2,2,2-trifluoroacetate]"
measured_property = "pIC50"
value_observed = 6.67


[I] CC1CCCCN1c1cncc(-c2c[nH]c3ccc(-c4nnc(N)o4)cc23)n1 (stereo not shown)
[II] Cc1ccn(-c2cccc(-c3c[nH]c4ccc(-c5nnc(N)s5)cc34)n2)n1
Lab note: record which item had the higher pIC50, I or II . Answer = label.
I

###

target: full length recombinant Pim-1 (Homo sapiens (Human), UniProt P11309); assay: Pim enzyme assay (HTRF, phosphorylation of biotinylated-BAD (S112) peptide), Pim-1; format: biochemical; settings: Pim-1 enzyme assay; read-out: Pim_1_IC50
measured_property: IC50 (nM)

Solved cases (5 shown):
[[record]]
molecule = "Fc1ccccc1-c1c[nH]c2ccc(-c3nnc(NCc4ccc5[nH]ccc5c4)s3)cc12"
measurement_target = "full length recombinant Pim-1 (Homo sapiens (Human), UniProt P11309)"
value_observed = 109

[[record]]
molecule = "Nc1nnc(-c2ccc3[nH]cc(-c4cccc(NCC5CC5)n4)c3c2)s1"
measurement_target = "full length recombinant Pim-1 (Homo sapiens (Human), UniProt P11309)"
value_observed = 82.9

[[record]]
molecule = "CC(Nc1nnc(-c2ccc3[nH]cc(-c4ccccn4)c3c2)o1)c1ccccc1 (centres unmarked)"
measurement_target = "full length recombinant Pim-1 (Homo sapiens (Human), UniProt P11309)"
value_observed = 97.2

[[record]]
molecule = "CN1CCN(c2cnc(-c3c[nH]c4ccc(-c5nnc(N)s5)cc34)cn2)CC1"
measurement_target = "full length recombinant Pim-1 (Homo sapiens (Human), UniProt P11309)"
value_observed = 61.3

[[record]]
molecule = "Oc1nnc(-c2ccc3[nH]cc(-c4ccc(F)cc4F)c3c2)s1"
measurement_target = "full length recombinant Pim-1 (Homo sapiens (Human), UniProt P11309)"
value_observed = 2000


[P] CC(C)Oc1cccc(-c2c[nH]c3ccc(-c4nnc(N)o4)cc23)c1
[Q] CNc1nnc(-c2ccc3[nH]cc(-c4csc(-n5cnc(C)c5)n4)c3c2)s1
[R] Nc1nnc(-c2ccc3[nH]cc(-c4nccc(C5CC5)n4)c3c2)o1
[S] c1cc2[nH]cc(-c3cncc(C4CC4)n3)c2cc1-c1nnc(N2CCOCC2)o1
Place the items in sequence of falling IC50. Give me the labels in the order the question wants.
P, Q, S, R

[1] Nc1nnc(-c2ccc3[nH]cc(-c4cccc(-n5ccccc5=O)n4)c3c2)s1
[2] CCc1nc(-c2c[nH]c3ccc(-c4nnc(NC(C)(C)C)o4)cc23)ncc1F
Quick check, higher IC50 between 1 and 2 ? Which one? Tell me its label.
1

###

target: full length recombinant Pim-1 (Homo sapiens (Human)); assay: Pim enzyme assay (HTRF, phosphorylation of biotinylated-BAD (S112) peptide), Pim-1; type: biochemical; conditions: Pim-1 enzyme assay; read-out: Pim_1_IC50
pIC50: −log10 of the molar value.
measured_property: pIC50

Worked examples follow.
[[record]]
smiles_structure = "Nc1nnc(-c2ccc3[nH]cc(-c4cncc(OC5CCCC5)n4)c3c2)s1"
value_observed = 7.98

[[record]]
smiles_structure = "CNc1nnc(-c2ccc3[nH]cc(-c4ccc5c(c4)OC(C)(C)C5)c3c2)s1"
value_observed = 6.73

[[record]]
smiles_structure = "CNc1nnc(-c2ccc3[nH]cc(-c4cccc(C(F)(F)F)c4)c3c2)s1"
value_observed = 5.72


[P] Cc1nccn1-c1cccc(-c2c[nH]c3ccc(-c4nnc(N)s4)cc23)n1
[Q] Nc1nnc(-c2ccc3[nH]cc(-c4cncc(-c5cccc(F)c5)n4)c3c2)o1
[R] Nc1nnc(-c2ccc3[nH]cc(-c4cccc(-n5cccn5)n4)c3c2)s1
# desc sort on pIC50 across 3 molecules Response format: the labels, sorted as the prompt asks.
Q, P, R
(Q: 8.22, P: 7.58, R: 7.09)
